Recorded values, source patent US20240075137A1.

measured_target: T1, human PVRIG on cells (human, UniProt Q6DKI7 1-326)
T1 construct: whole, on cells; over-expressed on HEK cells or endogenous on Jurkat and CD8 T cells; also called hPVRIG; HEK hPVRIG cells
T1 sequence (looked up): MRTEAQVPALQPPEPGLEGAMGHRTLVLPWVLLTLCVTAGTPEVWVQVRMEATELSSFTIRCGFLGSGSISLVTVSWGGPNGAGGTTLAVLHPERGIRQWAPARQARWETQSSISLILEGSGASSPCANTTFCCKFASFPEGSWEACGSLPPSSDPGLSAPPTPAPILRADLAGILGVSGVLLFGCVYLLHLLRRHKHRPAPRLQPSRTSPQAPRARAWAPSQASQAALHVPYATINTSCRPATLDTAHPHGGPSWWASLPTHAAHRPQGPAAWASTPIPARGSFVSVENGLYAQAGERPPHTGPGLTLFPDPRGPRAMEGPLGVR
protocol_details: FACS, human PBMC, CD56 int. NK cells, 10ug/ml
Mark Y only for gMFIr Human CD56 int. NK values smaller than 4; exact matches and larger values are N.

CHA.7.544 (antibody, V domains shown) VH: QVQLKESGPGLVAPSQSLSITCTVSGFSLTSYAITWVRQPPGKGLEWLGVIWPGGGTNYNSALKSRLSISKDNSKSHLFLKMNSLQTDDTARYYCVRSYDGYLDWYFDVWGTGTTVTVSS VL: NIVMTQSPKSMSMSVGERVTLSCKASENVGTYVSWYQQKPDQSPKLLIYGASNRYTGVPDRFTGSGSATDFTLIISSVQAEDLSDYHCGQSYSYPYTFGGGTKLEII: Y
CHA.7.524 (antibody, V domains shown) VH: QVQLQQSGPEVVRPGVSVKISCKGSGYKFPDYVMHWVKQSHAKSLEWIGIISIYSGNTNYNQKFKGKATMTVDKSSSTAYMELARLTSEDSAIYYCAREGDLPMFAYWGQGTLVTVSA VL: QIVLTQSPAIMSASPGEKVTMTCNASSSVSYMYWYQQKPISSPRLLIYDTSNLASGVPVRFSGSGSGTSYSLTIGRMEAEDAATYYCQQWSSYPLTFGAGTKVEVK: N
CHA.7.546 (antibody, V domains shown) VH: QIQLVQSGPELKKPGETVKISCKASGYTFTTYGMSWVKQAPGKGLKWMGWINTYSGVSTYADDFEGRFAFSLETSVSTAYLQINNLKNEDTATYFCARLGRGSTTGAGYLDVWGTGTTVTVSS VL: DIVLTQSPAIMSASPGEKVSMTCSASSSVSSWYLHWYQQKSGASPKLWIYGTSNLASGVPARFSGSGSGTSYSLTISSVEAEDAATYYCQQYHSDPYTFGSGTKLEIK: Y
CHA.7.545 (antibody, V domains shown) VH: QIQLVQSGPDLKKPGETVKISCKASGYTFTTYGMSWVKQAPGRGLKWMGWINTYSGVSTFPDDFKGRFAFSLETSASTAYLQINNLKNEDSATYFCARLGMGSTTGAGYFDVWGTGTTVTVSS VL: DIVLTQSPAIMSASPGEKVTMTCSASSSVSSWYLHWYQQKSGASPKLWIYGTSNLASGVPARFSGSGSGTSYSLTISSVEAEDAATYYCQQYRSDPYTFGSGTKLEIK: Y

Query block: Regarding CHA.7.543 (antibody, V domains shown) VH: QVQLKESGPGLVAPSQSLSITCTVSGFSLSGYGIKWVRQPPGKGLEWLGTIWGDGSTDYNSALKSRLSISKDNSKSQVFLKMTSLQTDDTARYYCASDSLGITFGYWGQGTLVTVSA VL: DIQMTQTTSSLSASLGDRVTISCRASQDISNYLNWYQQKPDGTVKLLIYYTSRLHSGVPSRFSGSGSGTDYSLTISNLEQEDIATYFCQQGNTLPLTFGAGTKLELK , kindly confirm whether its gMFIr Human CD56 int. NK is beneath 4.
Result block: N

Query block: Regarding CHA.7.547 (antibody, V domains shown) VH: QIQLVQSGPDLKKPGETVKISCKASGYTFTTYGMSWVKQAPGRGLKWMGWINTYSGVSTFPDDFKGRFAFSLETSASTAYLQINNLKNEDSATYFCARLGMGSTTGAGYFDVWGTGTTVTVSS VL: ENVLTQSPAIMSASLGEKVTLSCRASSSVNYMYWYQQKSDASPKLWIYYTSNLAPGVPARFSGSGSGNSYSLTISSVEGEDAATYYCQQFTSSPWTFGGGTKLEIK , kindly confirm whether its gMFIr Human CD56 int. NK is beneath 4.
Result block: Y

Query block: Regarding CHA.7.530 (antibody, V domains shown) VH: QVQLQQSGAELMRPGTSVKVSCKASGYAFTNHLIEWIKQRPGQGLEWIGVINPGSDSTDYNEKFKDKATLTADKSSSTAYMQLSSLTSDDSAVYFCARSLYYNSWFVYWGQGTLVTVSA VL: DIQMTQSPASLSASVGETVTITCRASENIYSYLAWYQQKRGKSPQLLVYNAKTLVEGVPSRFSGSGSGTQFSLKINSLQPEDFGSYYCQHHYGTPYTFGGGTKLEIK , kindly confirm whether its gMFIr Human CD56 int. NK is beneath 4.
Result block: N

Query block: Regarding CHA.7.535 (antibody, V domains shown) VH: EVQLQQSGPELVKPGASVKISCKTSGYTFTKNTMHWVRQSHGKSLEWIGGINPNSGGASFNQKFMGKATLTVDKSSSTAYMELRSLTSEDSAVYYCARDGYDGDWFFDVWGAGTTVTVSS VL: DIQMNQSPFSLSASLGDTVTITCHASQNIYVWLSWYQQKPGNIPKLLIYKASDLHTGVPSRFSGSGSGTDFTLNISSLQPEDIATYYCQQGQSYPRTFGGGTKLEIK , kindly confirm whether its gMFIr Human CD56 int. NK is beneath 4.
Result block: Y
